Target: Fes (UniProt P07332)
Sequence (P07332 whole entry, looked up): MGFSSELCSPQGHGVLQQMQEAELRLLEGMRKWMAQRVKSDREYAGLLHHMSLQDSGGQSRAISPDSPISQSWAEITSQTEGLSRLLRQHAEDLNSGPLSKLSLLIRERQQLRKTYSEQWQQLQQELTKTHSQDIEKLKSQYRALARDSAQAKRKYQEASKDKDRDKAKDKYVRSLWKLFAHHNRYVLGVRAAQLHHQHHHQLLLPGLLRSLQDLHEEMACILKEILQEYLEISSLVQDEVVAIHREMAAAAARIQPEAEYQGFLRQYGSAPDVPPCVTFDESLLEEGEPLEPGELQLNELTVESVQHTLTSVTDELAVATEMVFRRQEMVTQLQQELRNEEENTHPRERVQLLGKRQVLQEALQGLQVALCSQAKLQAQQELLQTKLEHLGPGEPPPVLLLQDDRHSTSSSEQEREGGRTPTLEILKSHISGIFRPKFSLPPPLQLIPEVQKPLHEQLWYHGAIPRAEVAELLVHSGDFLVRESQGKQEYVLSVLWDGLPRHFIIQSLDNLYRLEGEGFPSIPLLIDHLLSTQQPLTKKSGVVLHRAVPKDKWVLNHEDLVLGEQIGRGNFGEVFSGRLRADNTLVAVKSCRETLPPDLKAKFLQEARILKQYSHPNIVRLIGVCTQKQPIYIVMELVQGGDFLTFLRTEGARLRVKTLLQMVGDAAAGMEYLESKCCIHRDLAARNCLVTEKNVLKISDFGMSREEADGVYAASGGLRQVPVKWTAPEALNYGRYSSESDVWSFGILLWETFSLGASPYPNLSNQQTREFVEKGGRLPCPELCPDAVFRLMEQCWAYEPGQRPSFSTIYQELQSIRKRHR
Test: phosphorylation enrichment, bacterial display (enrichment ratio); higher = better substrate or ligand; peptides without Tyr show the background;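 further: 11-residue human phosphosite peptides and single-mutation variants displayed on the E. coli surface, counted by deep sequencing, each peptide's frequency after selection divided by its frequency in the unselected input library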;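 further: frequency after pTyr selection over input frequency; kinase dosed for 20-30% of maximal phosphorylation in three min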
Definition: the class of an entry is the range in L (below 0.7), M (0.7 to below 1), H (1 or more) that contains its phosphorylation enrichment.

| seq-text | target-system | assigned-category |
| --- | --- | --- |
| GSERRYTREGG [PTPRN2_Y139_S140T] | Fes (UniProt P07332) | L |
| SLQFEYVHFGG [CDC14A_Y591_S589F_YF] | Fes (UniProt P07332) | H |
| AKIDGYIISYR | Fes (UniProt P07332) | H |
| ARIVDYNIIGW [MYH7_Y588_G584R] | Fes (UniProt P07332) | M |
| QRHFVYFFSFL [PTEN_Y176_R173H_YF] | Fes (UniProt P07332) | H |
| KRGASYILKLA [SERPINB1_Y84] | Fes (UniProt P07332) | H |
| NFRNTYVNANE [KCNH2_Y475_T473N] | Fes (UniProt P07332) | L |
| FADIAYNFRHA [PAH_Y166_G171A_YF] | Fes (UniProt P07332) | L |
| CTTIHYNFMGN [TP53_Y234_C238G_YF] | Fes (UniProt P07332) | M |
| KGYRGYSYDDI [TMEM230_Y110] | Fes (UniProt P07332) | M |
| KFANSYRMEPL [TCTE3_Y87] | Fes (UniProt P07332) | L |
| QRVLLYVRRET [GRHL3_Y518] | Fes (UniProt P07332) | M |
| STDDGCIDLQF [TMEM230_Y29_Y29C] | Fes (UniProt P07332) | H |
| NGLVACKDGKL [PMM2_Y76_Y76C] | Fes (UniProt P07332) | L |
| APRKVYDTRDD [ZFPL1_Y215] | Fes (UniProt P07332) | M |
| PNATLYKMSSI [SERPINA7_Y40] | Fes (UniProt P07332) | L |
| IFHLSYIHNCE [PDE6B_Y227_L228I_YF] | Fes (UniProt P07332) | H |
| KTSGNYLAVTG [WDR19_Y28] | Fes (UniProt P07332) | L |
| LGPSDYFGEIA [PRKAR1A_Y323] | Fes (UniProt P07332) | H |

Origin of the recorded values: the supplement of paper PMC10065799
